# Target: µ-opioid receptor (Homo sapiens, UniProt P35372)
# Sequence (P35372 whole entry): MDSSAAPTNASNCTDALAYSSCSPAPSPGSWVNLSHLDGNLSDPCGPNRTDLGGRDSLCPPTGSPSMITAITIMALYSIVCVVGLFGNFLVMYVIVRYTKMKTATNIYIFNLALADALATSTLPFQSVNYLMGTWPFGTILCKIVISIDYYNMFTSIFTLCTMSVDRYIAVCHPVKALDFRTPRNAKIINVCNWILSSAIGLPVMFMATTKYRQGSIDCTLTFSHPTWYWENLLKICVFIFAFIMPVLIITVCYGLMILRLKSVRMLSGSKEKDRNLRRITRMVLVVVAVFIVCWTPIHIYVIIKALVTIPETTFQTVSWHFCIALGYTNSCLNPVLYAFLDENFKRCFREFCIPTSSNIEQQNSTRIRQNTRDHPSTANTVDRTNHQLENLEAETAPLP
# Method Description: biochemical
# Type: binding
# Set-up: host or cells: U2OS (membrane preparation)
# Applied Conditions: GRK2 moi 5 KL
Measured Parameter: pKi
# pKi: negative log10 of molar concentration; output just the value

Record summary for `CC(=O)N[C@@H](Cc1ccccc1)C(=O)NCC(C)(C)NC(=O)[C@@H](N)Cc1ccc(O)cc1.Cl` : reported pKi = 7.66

====

# Target: µ-opioid receptor (Homo sapiens)
# Method Description: biochemical
# Type: binding
# Parameters: host or cells: U2OS (membrane preparation)
# Applied Conditions: Untransduced KL
Measured Parameter: pKi
# pKi: negative log10 of molar concentration; output just the value

Record summary for `CC(=O)N[C@@H](Cc1ccccc1)C(=O)NCC(C)(C)NC(=O)[C@@H](N)Cc1ccc(O)cc1.Cl` : reported pKi = 7.37

====

# Target: µ-opioid receptor (Homo sapiens, UniProt P35372)
# Method Description: biochemical
# Assay type: binding
# Set-up: host or cells: U2OS (membrane preparation)
# Applied Conditions: Untransduced KH
Measured Parameter: Ki (nM)
Just the number please, in nM, no unit attached.

Record summary for `CC(=O)N[C@@H](Cc1ccccc1)C(=O)NCC(C)(C)NC(=O)[C@@H](N)Cc1ccc(O)cc1.Cl` : reported Ki = 0.0479

====

# Target: µ-opioid receptor (Homo sapiens, UniProt P35372)
# Method Description: biochemical
# Assay type: binding
# Parameters: host or cells: U2OS (membrane preparation)
# Applied Conditions: GRK2 moi 5 KH
Measured Parameter: Ki (pM)
Just the number please, in pM, no unit attached.

Record summary for `CC(=O)N[C@@H](Cc1ccccc1)C(=O)NCC(C)(C)NC(=O)[C@@H](N)Cc1ccc(O)cc1.Cl` : reported Ki = 51.3
